ASSAY_SYSTEM: cloned human dopamine D3 receptors (Homo sapiens)
Construct: expressed in transfected cells; membrane homogenate
ASSAY: [N-Methyl-3H]Spiroperidol binding to cloned human dopamine D3 receptors
TEST_SETTINGS: read-out: D3 Ki
QUANTITY_KIND: Ki (nM)
# output: bare number, implied unit nM

O=C(C1CC1CN1CCC(c2noc3ccsc23)CC1)N1CCC(Oc2ccc(F)cc2)CC1 (racemic) ... 201
O=C(NC1CCN(Cc2ccc(Cl)cc2)CC1)[C@@H]1C[C@H]1CN1CCN(c2csc3cc(C(F)(F)F)ccc23)CC1 ... 5.42
O=C([C@@H]1C[C@H]1CN1CCC(c2noc3ccsc23)CC1)N1CCN(Cc2ccc(F)cc2)CC1 ... 108

Entry COc1ccc(C2=CCN(C(=O)C3CC3CN3CCC(c4noc5ccsc45)CC3)CC2)cc1 (racemic) — recorded Ki = 49.8

Entry COc1c(F)ccc2c(C3CCN(CCC4(C(=O)N[C@H]5CC[C@H](O)CC5)CC4)CC3)noc12 — recorded Ki = 131

Entry COCCN1CCN(C(=O)C2CC2CN2CCC(c3noc4ccsc34)CC2)CC1 (racemic) — recorded Ki = 94.6

Entry CCN1CCN(C(=O)N2CCC(NC(=O)C3CC3CN3CCC(c4noc5ccsc45)CC3)CC2)C(=O)C1=O (racemic) — recorded Ki = 95

Entry O=C(NCCc1ccc(Cl)cc1)C1CC1CN1CCC(c2noc3ccsc23)CC1 (racemic) — recorded Ki = 5

---

ASSAY_SYSTEM: cloned human dopamine D3 receptors (Homo sapiens, UniProt P35462)
Construct: expressed in transfected cells; membrane homogenate
Sequence (P35462 whole entry): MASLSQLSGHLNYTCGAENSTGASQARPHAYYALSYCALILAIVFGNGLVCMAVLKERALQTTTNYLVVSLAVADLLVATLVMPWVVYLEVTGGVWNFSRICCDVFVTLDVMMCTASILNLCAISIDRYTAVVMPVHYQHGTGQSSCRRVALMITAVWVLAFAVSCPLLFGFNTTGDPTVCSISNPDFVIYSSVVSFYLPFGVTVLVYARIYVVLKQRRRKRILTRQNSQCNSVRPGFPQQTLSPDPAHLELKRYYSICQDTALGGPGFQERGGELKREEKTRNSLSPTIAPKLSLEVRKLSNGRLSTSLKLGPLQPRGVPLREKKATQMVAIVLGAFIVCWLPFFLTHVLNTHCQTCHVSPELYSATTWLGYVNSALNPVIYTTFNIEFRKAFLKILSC
ASSAY: [N-Methyl-3H]Spiroperidol binding to cloned human dopamine D3 receptors
TEST_SETTINGS: read-out: D3 Ki
Experimental: [N-Methyl-^3H]Spiroperidol Binding to Cloned Human Dopamine D3 Receptors […] A 200 μl sample membrane homogenate is added to 200 μl of 1% SDS, vortexed and allowed to stand for 5 min. Aliquots (25, 50 and 100 μl) of this mixture are assayed in duplicate following the standard Bio-Rad DC protein assay protocol (kit catalog number 500-0112) and using reagent S. Absorbance readings are made at 750 nm (note: the most accurate protein OD readings are between 0.1-0.5 units). […]
Each entry below carries its recorded pKi.
Scale note: pKi = -log10(concentration in M).

Study these solved cases before continuing.
CN1CCCC1CCNC(=O)[C@@H]1C[C@H]1CN1CCN(c2csc3cc(C(F)(F)F)ccc23)CC1 (mixture of isomers) [compound 831884] ... 8.71
CC1CCC(NC(=O)C2CC2CN2CCN(c3n[nH]c4cc(Cl)ccc34)CC2)CC1 (racemic) [compound 830124] ... 8.74
O=C(NCCCn1ccnc1)[C@@H]1C[C@H]1CN1CCC(c2cc3ccccc3s2)CC1 [compound 831488] ... 9.14

Assay cloned human dopamine D3 receptors (Homo sapiens, UniProt P35462), sample O=C(N[C@H]1CC[C@H](O)CC1)[C@@H]1C[C@H]1CN1CCN(c2nn(-c3ccc(C(F)(F)F)cc3)c3ccsc23)CC1 [compound 832648] , pKi read: 7.68

Assay cloned human dopamine D3 receptors (Homo sapiens, UniProt P35462), sample CC(C)N1CCN(C(=O)C2CC2CN2CCC(c3noc4ccsc34)CC2)CC1 (racemic) [compound 832188] , pKi read: 8.00

---

Each entry below carries its recorded pKi.
ASSAY_SYSTEM: cloned human dopamine D3 receptors (Homo sapiens, UniProt P35462)
Construct: expressed in transfected cells; membrane homogenate
ASSAY: [N-Methyl-3H]Spiroperidol binding to cloned human dopamine D3 receptors
TEST_SETTINGS: read-out: D3 Ki
Scale note: pKi = -log10(concentration in M).

Study these solved cases before continuing.
O=C(NCCS(=O)(=O)c1cccc2c(Cl)cccc12)[C@@H]1C[C@H]1CN1CCC(c2noc3ccsc23)CC1 [compound 832528] ... 7.31
COc1ccc2c(c1)c(N1CCN(C[C@@H]3C[C@H]3C(=O)NCCCn3ccnc3)CC1)nn2-c1ccc(C(F)(F)F)cc1 [compound 831313] ... 6.87

Entry O=C(NCCCn1ccnc1)[C@@H]1C[C@H]1CN1CCN(c2nn(-c3ccccc3)c3ccsc23)CC1 [compound 832592] — recorded pKi = 8.14

Entry O=C(NCCCN1CCCCC1)[C@@H]1C[C@H]1CN1CCC(c2noc3ccsc23)CC1 [compound 831045] — recorded pKi = 6.47

Entry CC(C)(C)OC(=O)N1CCCCC1CCNC(=O)[C@@H]1C[C@H]1CN1CCC(c2noc3ccsc23)CC1 (mixture of isomers) [compound 832533] — recorded pKi = 8.39

Entry CN1CCCC1CCNC(=O)[C@@H]1C[C@H]1CN1CCC(c2noc3ccsc23)CC1 (single isomer, unassigned) [compound 832513] — recorded pKi = 7.26

Origin of measurements: patent US7772252B2
